All figures here come from paper PMC4126670.

tested on: M. tuberculosis; experiment: Antibacterial growth assay; type: cell-based, Mycobacterium tuberculosis; conditions: Mycobacterium tuberculosis
readout: MIC (µg/mL)
One number for each entry, in µg/mL.

Use these answered entries as a reference point.
CCCCCCc1ccc(Oc2ccccc2F)c(O)c1 | 1.56
CCCCCCc1ccc(Oc2c(C)cccc2C)c(O)c1 | 100
CCCCCCc1ccc(Oc2ccc([N+](=O)[O-])cc2C)c(O)c1 | 6.25
CCCCCCc1ccc(Oc2ccccc2C#N)c(O)c1 [PT119, 2-(4-Hexyl-2-hydroxyphenoxy)benzonitrile] | 2.5

For every item below, please supply its MIC.
1. CCCCCCc1ccc(Oc2cccnc2F)c(O)c1
2. CCCCCCc1ccc(Oc2ccccc2C(F)(F)F)c(O)c1

Reply:
1. 0.312
2. 50

For every item below, please supply its MIC.
1. CCCCCCc1ccc(Oc2cnccc2N)c(O)c1
2. CCCCCCc1ccc(Oc2cnccc2C#N)c(O)c1
3. CCCCCCc1ccc(Oc2cncnc2N)c(O)c1

Reply:
1: 50; 2: 12.5; 3: 3.12

For every item below, please supply its MIC.
1. CCCCCCc1ccc(Oc2c(F)cccc2Cl)c(O)c1
2. CCCCCCc1ccc(Oc2ccccc2I)c(O)c1
3. CCCCCCc1ccc(Oc2cnccc2C(=O)O)c(O)c1

Reply:
1. 25
2. 25
3. 25

Ask: Could you tell me which MIC is on file for CCCCCCc1ccc(Oc2ccccc2Cl)c(O)c1 ?
Reply: 1.56

---

biological target: wild-type InhA (Mycobacterium tuberculosis); test: InhA progress curve assays; format: biochemical
Sequence (P9WGR1 whole entry, looked up): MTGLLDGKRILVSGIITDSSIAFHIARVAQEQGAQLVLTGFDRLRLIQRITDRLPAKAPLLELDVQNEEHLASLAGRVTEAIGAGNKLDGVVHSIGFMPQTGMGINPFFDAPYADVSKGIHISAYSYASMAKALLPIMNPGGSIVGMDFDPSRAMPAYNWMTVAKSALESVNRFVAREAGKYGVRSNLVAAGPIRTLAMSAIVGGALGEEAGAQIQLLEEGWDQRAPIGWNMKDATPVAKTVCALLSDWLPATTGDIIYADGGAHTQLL
For each of the compounds below, state its residence time.
Numbers only, in min.

Use these answered entries as a reference point.
CCCCCCc1ccc(Oc2ccccc2Cl)c(O)c1 [PT091, 2-(2-Chlorophenoxy)-5-hexylphenol] | 21
CCCCCCc1ccc(Oc2ccccc2F)c(O)c1 [PT113, 2-(2-Fluorophenoxy)-5-hexylphenol] | 9

For every item below, please supply its residence time.
1. CCCCCCc1ccc(Oc2ccccc2C#N)c(O)c1 [PT119, 2-(4-Hexyl-2-hydroxyphenoxy)benzonitrile]
2. CCCCCCc1ccc(Oc2ccccc2Br)c(O)c1 [PT092, 2-(2-Bromophenoxy)-5-hexylphenol]

Reply:
1. 80
2. 30

---

For each of the compounds below, state its pKi.
target: wild-type InhA (Mycobacterium tuberculosis); test: InhA progress curve assays; assay type: biochemical
One number for each entry, as −log10 of the molar value.

Use these answered entries as a reference point.
CCCCCCc1ccc(Oc2ccccc2O)c(O)c1 [PT114, 5-Hexyl-2-(2-hydroxyphenoxy)phenol] | 7.80
CCCCCCc1ccc(Oc2ccc([N+](=O)[O-])cc2C)c(O)c1 | 9.89
CCCCCCc1ccc(Oc2ccccc2I)c(O)c1 | 8.43

Here's the next entry for you.
Ask: Could you tell me which pKi is on file for CCCCCCc1ccc(Oc2ccccc2F)c(O)c1 ?
Reply: 10.05

---

tested on: M. tuberculosis; assay: Antibacterial growth assay; assay type: cell-based, Mycobacterium tuberculosis; conditions: Mycobacterium tuberculosis
For each of the compounds below, state its MIC.
One number for each entry, in µg/mL.

Use these answered entries as a reference point.
CCCCCCc1ccc(Oc2ccccc2O)c(O)c1 [PT114, 5-Hexyl-2-(2-hydroxyphenoxy)phenol] | 12.5
CCCCCCc1ccc(Oc2c(F)cccc2C#N)c(O)c1 | 25
CCCCCCc1ccc(Oc2ccccc2Br)c(O)c1 | 3.12

Here's the next entry for you.
Ask: Could you tell me which MIC is on file for CCCCCCc1ccc(Oc2c(Cl)cccc2Cl)c(O)c1 ?
Reply: 25
